src = patent US11236129B2

Assay: Isoelectric point, log D and log P (SiriusT3)
Type: physicochemical
Settings: 25±1° C., 0.15 M KCl
Residues, ends and D or L forms follow the SMILES beside them.
The label depends only on IP (isoelectric point): True if it is at least 5, False if it is smaller.

# example entries with known answers
CC[C@H](C)[C@H](NC(C)=O)C(=O)N[C@@H](Cc1c[nH]cn1)C(=O)N[C@H](C(=O)N[C@H](C(=O)N[C@H](C(=O)N1CCC[C@H]1C(=O)N[C@@H](C)C(=O)N[C@@H](CC(=O)O)C(=O)N[C@@H](CC(C)C)C(=O)N[C@@H](Cc1c[nH]c2ccccc12)C(=O)N[C@@H](CC(=O)O)C(=O)N[C@@H](Cc1c[nH]c2ccccc12)C(=O)N[C@H](C(=O)N[C@@H](CCC(=O)O)C(=O)N[C@@H](CCC(=O)O)C(N)=O)C(C)C)[C@@H](C)CC)[C@@H](C)O)C(C)C [SEQ ID NO: 15] (Ac-IHVTIPADLWDWVEE-NH2) :: False
CC(=O)N[C@@H](CC(=O)O)C(=O)N[C@@H](CC(C)C)C(=O)N[C@@H](CO)C(=O)N[C@@H](C)C(=O)N[C@H](C(=O)N[C@H]1CSSC[C@@H](C(=O)N[C@@H](Cc2c[nH]cn2)C(N)=O)NC(=O)[C@H](CCC(=O)O)NC(=O)[C@@H]2CCCN2C(=O)[C@H](CC(=O)O)NC(=O)[C@H](Cc2c[nH]c3ccccc23)NC(=O)[C@@H]2CCCN2C(=O)[C@H](Cc2ccccc2)NC(=O)[C@H](C)NC(=O)[C@H](Cc2c[nH]c3ccccc23)NC1=O)C(C)C [SEQ ID NO: 41] :: False
CC[C@H](C)[C@H](NC(C)=O)C(=O)N[C@@H](Cc1c[nH]cn1)C(=O)N[C@H](C(=O)N[C@H](C(=O)N[C@H](C(=O)N1CCC[C@H]1C(=O)N[C@@H](C)C(=O)N[C@@H](CC(=O)O)C(=O)N[C@@H](CC(C)C)C(=O)N[C@@H](Cc1c[nH]c2ccccc12)C(=O)N[C@@H](CC(=O)O)C(=O)N[C@@H](Cc1c[nH]c2ccccc12)C(=O)N[C@H](C(=O)N[C@@H](CC(N)=O)C(=O)N[C@@H](CCC(=O)O)C(N)=O)[C@@H](C)CC)[C@@H](C)CC)[C@@H](C)O)C(C)C [SEQ ID NO: 12, IHVTIPADLWDWINE] (Ac-IHVTIPADLWDWINE-NH2) :: False

// inclusive: IP (isoelectric point) at least 5? input: CC[C@H](C)[C@H](NC(C)=O)C(=O)N[C@@H](Cc1c[nH]cn1)C(=O)N[C@H](C(=O)N[C@H](C(=O)N[C@H](C(=O)N1CCC[C@H]1C(=O)N[C@@H](C)C(=O)N[C@@H](CC(=O)O)C(=O)N[C@@H](CC(C)C)C(=O)N[C@@H](Cc1c[nH]c2ccccc12)C(=O)N[C@@H](CC(=O)O)C(=O)N[C@@H](Cc1c[nH]c2ccccc12)C(=O)N[C@H](C(=O)N[C@@H](CCCNC(=N)N)C(=O)N[C@@H](CCCCN)C(N)=O)[C@@H](C)CC)[C@@H](C)CC)[C@@H](C)O)C(C)C [SEQ ID NO: 9] (Ac-IHVTIPADLWDWIRK-NH2)
True

Assess whether reported IP (isoelectric point) for CC[C@H](C)[C@H](NC(C)=O)C(=O)N[C@@H](Cc1c[nH]cn1)C(=O)N[C@H](C(=O)N[C@H](C(=O)N[C@H](C(=O)N1CCC[C@H]1C(=O)N[C@@H](C)C(=O)N[C@@H](CC(=O)O)C(=O)N[C@@H](CC(C)C)C(=O)N[C@@H](Cc1ccc(O)cc1)C(=O)N[C@@H](CCC(=O)O)C(=O)N[C@@H](Cc1c[nH]c2ccccc12)C(=O)N[C@H](C(=O)N[C@@H](CC(N)=O)C(=O)N[C@@H](CCCCN)C(N)=O)[C@@H](C)CC)[C@@H](C)CC)[C@@H](C)O)C(C)C [SEQ ID NO: 7] (Ac-IHVTIPADLYEWINK-NH2) sits at 5 or higher.
True

Could you tell me if the measured IP (isoelectric point) of CC[C@H](C)[C@H](NC(=O)[C@H](Cc1c[nH]c2ccccc12)NC(=O)[C@H](CC(=O)O)NC(=O)[C@H](Cc1c[nH]c2ccccc12)NC(=O)[C@H](CC(C)C)NC(=O)[C@H](CC(=O)O)NC(=O)[C@H](C)NC(=O)[C@@H]1CCCN1C(=O)[C@@H](NC(=O)[C@@H](NC(=O)[C@@H](NC(=O)[C@H](CCSC)NC(=O)[C@@H](NC(C)=O)C(C)C)C(C)C)[C@@H](C)O)[C@@H](C)CC)C(=O)N[C@@H](CC(N)=O)C(=O)N[C@@H](CCCCN)C(N)=O [SEQ ID NO: 4] (Ac-VMVTIPADLWDWINK-NH2) reaches 5 or more?
False

Assess whether reported IP (isoelectric point) for CC[C@H](C)[C@H](NC(=O)[C@@H](NC(=O)[C@@H](NC(=O)[C@H](Cc1c[nH]cn1)NC(=O)[C@@H](NC(C)=O)C(C)C)C(C)C)[C@@H](C)O)C(=O)N1CCC[C@H]1C(=O)N[C@@H](C)C(=O)N[C@@H](CCC(=O)O)C(=O)N[C@@H](CC(C)C)C(=O)N[C@@H](Cc1c[nH]c2ccccc12)C(=O)N[C@@H](CCC(=O)O)C(=O)N[C@@H](Cc1c[nH]c2ccccc12)C(=O)N[C@H](C(=O)N[C@@H](CCCNC(=N)N)C(=O)N[C@@H](CCCNC(=N)N)C(N)=O)C(C)C [SEQ ID NO: 111] (Ac-VHVTIPAELWEWVRR-NH2) sits at 5 or higher.
True
